# Assay Remarks: growth suppression of PTEN-deleted HCT116, pilot screen, cell-based, HCT116 clonal line, CellTiter-Glo (AID 824);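 note: 0% = 20 µM Hyamine control and 100% = vehicle cell control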
# Assay Conditions: 60 h, at 10 µM
Results filed as inconclusive are left out. Activity calls are given as the source filed them.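 Rule for the calls: active = viability at or below 27.92% in each of two runs, the all-compound median minus 4 SD; inconclusive = no clear call, values can overlap the other calls; inactive = the rest.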
Select the correct class. Options are y (active), n (inactive) and nothing else.

Consider the following illustrative entries.
[[record]]
compound = "Clc1cccc(CSc2nnc(-c3ccccn3)n2Cc2ccco2)c1"
assigned_label = "n"

[[record]]
compound = "CCOC(=O)c1ccc2nc(NC(=O)C(C)C)sc2c1"
assigned_label = "n"

[[record]]
compound = "CCCn1c(-c2ccc(OC)cc2)nc2ccccc21"
assigned_label = "n"

[[record]]
compound = "CCCc1cc(=O)[nH]c(SCC(=O)N2CCN(S(=O)(=O)c3ccc(C)cc3)C2)n1"
assigned_label = "n"

[[record]]
compound = "CCCCOC(=O)Nc1sc2c(c1C(=O)OC)CCC2"
assigned_label = "n"

[[record]]
compound = "COc1ccccc1N1CCN(Cc2cc(Br)c(O)c3ncccc23)CC1"
assigned_label = "y"


Q: So what was the verdict on `Cc1cccc(NC(=O)CCNS(=O)(=O)c2cccc3nsnc23)c1` in this test?
Result: n

Q: Recorded test call requested for `Cc1onc(-c2ccccc2Cl)c1C(=O)NCCN1Cc2ccccc2C1=O`
Result: n

Q: Returns: the outcome recorded for CC(C)CNC1=CC(=O)CC(c2ccco2)C1 (configuration not stated) in this assay.
Result: n

###

# Assay Remarks: growth suppression of beta-catenin knockout HCT116, pilot screen, human colon tumor cells (AID 823);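 note: 0% = wells killed by 20 µM Hyamine and 100% = untreated DMSO cell wells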
# Assay Conditions: CellTiter-Glo, 60 h, at 10 µM, active compounds read low
Records with an inconclusive call do not appear.
viability values, listed per item
The answer is to be given in %; state only the numeric part.

[[record]]
compound = "Cn1c(CNC(=O)C(C)(C)C)nc2ccccc21"
unit_tag = "%"
quantitative_readout = 101


Record `O=C(CSc1ccccc1)NCc1cccnc1` , field viability: 99.5

`CCOC(=O)N1CCN(c2ccc3nnnn3n2)CC1` yielded viability of 101

response.value for `Oc1cccc(/C=N/c2c(-c3ccco3)nc3ccccn23)c1` (field: viability) = 87.7

Value of viability reported for the compound `CCOc1ccccc1N(CC)C(=O)Cn1ncc2c(=O)oc3ccccc3c21` is 95.7

The recorded viability for COc1cccc(-c2nc(CS(=O)CC(=O)NC3CCCC3)c(C)o2)c1 (configuration not stated) is 90.3

###

# Assay Remarks: Restrictive medium S. cerevisiae growth inhibition, OD615, pilot screen of yeast lifespan reduction project, restrictive growth control (AID 706);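 note: modified DeaD lifespan yeast strain shifted to restrictive glucose medium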
# Assay Conditions: OD615, 48 h, at 10 µM, active compounds read high
Observed Property: growth inhibition (%)
Answer in %, number only, no unit symbol.

Here are 5 compounds together with their reported answers.
[[record]]
compound = "CCOc1ccccc1C1C(C(=O)Nc2ccccc2OC)=C(C)Nc2nc(CCCO)nn21 (stereo unspecified)"
quantitative_readout = -8.73

[[record]]
compound = "COC(=O)CSc1nc2ccccc2o1"
quantitative_readout = -18.7

[[record]]
compound = "CCOc1ccc(CCNC(=O)c2nnc(Cc3ccc(F)cc3)o2)cc1OCC"
quantitative_readout = 7.65

[[record]]
compound = "O=C1c2ccccc2NC(c2ccc3c(c2)OCCO3)N1c1ccc2c(c1)OCCO2 (stereo unspecified)"
quantitative_readout = 6.69

[[record]]
compound = "Cc1cc(C)c(S(=O)(=O)NCCCN2CCOCC2)cc1Br"
quantitative_readout = -14.8


// growth inhibition lookup, compound = CCOC(=O)c1c(C)n(C)c2ccc(OCC(O)CN3CCN(C)CC3)cc12 (stereo unspecified) , result: -16.5

Entry `COc1ccccc1-c1c(C)nn2c(N3CCN(c4ccccc4OC)CC3)cc(C)nc12` ; growth inhibition = 6.77

Documented growth inhibition of COC(=O)C1=C(C)N(C)C(=O)NC1c1ccc(O)c(OC)c1 (stereo unspecified) : -7.74

The recorded growth inhibition for `Cc1cc(C)cc(N(CC(=O)Nc2c(C)n(C)n(-c3ccccc3)c2=O)S(C)(=O)=O)c1` is -11.2

The recorded growth inhibition for `CCOc1ccccc1Nc1nnc(Cc2ccccc2Cl)c(=O)[nH]1` is -19.1

For CCOC(=O)C1=C(C)NC(=O)NC1c1c(O)ccc2ccccc12 (stereo unspecified) the compound record lists growth inhibition as -12.7

###

# Assay Remarks: growth suppression of PTEN-deleted HCT116, pilot screen, cell-based, HCT116 clonal line, CellTiter-Glo (AID 824);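 note: 0% = 20 µM Hyamine control and 100% = vehicle cell control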
# Assay Conditions: 60 h, at 10 µM, active compounds read low
Inconclusive results are not listed.
Observed Property: viability (%)
Could you give me the number in %? Just the number is fine.

[[record]]
compound = "COc1cccc(NC(=O)c2nnn(CCc3ccccc3)c2N)c1"
quantitative_readout = 50.7

[[record]]
compound = "COc1ccc(COC(=O)C2=C(C)NC(=O)NC2c2ccc(O)c(OC)c2)cc1 (centres undefined)"
quantitative_readout = 89.2

[[record]]
compound = "CC(C)c1cc(C(=O)Nc2ccc3c(c2)OCO3)no1"
quantitative_readout = 92.8


// `Cc1noc(C(=O)NCc2ccco2)c1Cl` : viability value = 101

Value of viability reported for the compound `Cc1ccc(-c2nc3cnccn3c2Nc2ccccc2)o1` is 84.3

Record summary for `CCOC(=O)NC(Nc1ccc(C)cn1)(C(F)(F)F)C(F)(F)F` : reported viability = 100

The value of viability measured for the compound `CCCCn1c(CCCNC(=O)CC)nc2ccccc21` turned out to be 85.8

Quick note, viability for `CN(C)c1nc(N)nc(-c2ccco2)n1` landed at 103

Sample CCOC(=O)CC1C(=O)NCCN1C(=O)c1cc2c(=O)n3ccccc3nc2s1 (centres undefined) ; viability observed: 95.5

Entry under test: COc1ccc(C2(C(F)(F)F)NC(=O)N(C)C(=O)N2C)cc1 (centres undefined) . Its viability was 101

# viability (compound: CCc1ccccc1N1CC23C=CC(O2)C(C(=O)OCC(C)C)C3C1=O (centres undefined) ) is 89.6

###

# Assay Remarks: viability gain of MRP-1-high H69AR cells under doxorubicin, pilot screen, MRP-1 activator project, CellTiter-Glo, duplicate (AID 807);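 note: compound pretreatment 18-22 h then 72 h combined with doxorubicin; 0% = doxorubicin alone and 100% = vehicle without doxorubicin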
# Assay Conditions: H69AR viability with doxorubicin, CellTiter-Glo luminescence; at 10 µM; active compounds read high
The source made the active and inactive calls.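 How the source made its calls: active means viability increase at or above a cutoff of the median across tested compounds plus 3 SD (cut at about 8.5% in these data, passing the limit was not always enough); inconclusive means some gains above the cutoff, reason not given; inactive means the rest.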
Observed Property: viability increase

# count of solved cases: 3
[[record]]
molecule = "CCN1CCN(C(=O)Cn2c(=O)sc3ccccc32)CC1"
result = "-2.64% (inactive)"

[[record]]
molecule = "CCc1cccc(OCC(=O)Nc2ccc(S(=O)(=O)Nc3onc(C)c3C)cc2)c1"
result = "-1.89% (inactive)"

[[record]]
molecule = "CCCCN(CC)CCNc1c(NC2CCN(C(=O)OCC)CC2)c(=O)c1=O"
result = "-0.12% (inactive)"


Consider now this further molecule.
Briefly, viability increase measured for `CCOc1cccc(=O)c2c(C)n(Cc3ccco3)c(C)c12` : -3.8% (inactive)

###

# Assay Remarks: Restrictive medium S. cerevisiae growth inhibition, OD615, pilot screen of yeast lifespan reduction project, restrictive growth control (AID 706);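 note: modified DeaD lifespan yeast strain shifted to restrictive glucose medium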
# Assay Conditions: OD615, 48 h, at 10 µM, active compounds read high
Observed Property: growth inhibition (%)
Numeric answer only, unit % assumed.

Some entries whose results are on file:
[[record]]
compound = "Cc1ccc(-n2nc(C)c3c(C)c(CCC(=O)NCc4ccco4)c(C)nc32)cc1"
quantitative_readout = -9.24

[[record]]
compound = "Cc1ccc(N2C(=O)CC(N3CCN(C4CCc5ccccc5C4)CC3)C2=O)cc1 (stereo not given)"
quantitative_readout = 1.44

[[record]]
compound = "CC(=NCCc1ccccc1)C1=C(O)CSC1=O"
quantitative_readout = -6.07


Looking up CC(C)CC1(C(=O)O)NC(c2ccccc2O)C2C(=O)N(C(C)C)C(=O)C21 (stereo not given) , I found its growth inhibition recorded as 3.48

Recorded result, `COc1ccc(N2CCN(CCCNS(=O)(=O)c3ccc4c(c3)oc(=O)n4C)CC2)cc1` , growth inhibition: 2.4

Recorded growth inhibition (compound CCOC1=NC(C(=O)O)c2ccccc2/C(=C(/C)Cl)N1 (stereo not given) ): -27.8

For reference, reported growth inhibition for `COc1cccc(CNC(=O)Cn2cc3c(n2)CCCCC3)c1` stands at -19.7

growth inhibition reading for `CCOc1ccccc1NC(=O)CSc1nnc(Cn2c(=O)sc3ccccc32)n1C` : 9.08

Value of measured growth inhibition for the entry `CCOC(=O)N1CCN(C(=O)c2ccc3c(=O)n(CCC4=CCCCC4)c(=S)[nH]c3c2)CC1` : 3.16

Notebook: `O=C(CN1C2=NCCCN2c2ccccc21)c1cccs1` , growth inhibition read as -10.1

###

// reported viability for each item listed
# Assay Remarks: growth suppression of beta-catenin knockout HCT116, pilot screen, human colon tumor cells (AID 823);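 note: 0% = wells killed by 20 µM Hyamine and 100% = untreated DMSO cell wells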
# Assay Conditions: CellTiter-Glo, 60 h, at 10 µM, active compounds read low
Results filed as inconclusive are left out.
Record the value in %, omitting the unit from your answer.

Known viability results, listed for orientation:
[[record]]
compound = "CCOc1ccc(C(=O)Nn2cnnc2)cc1"
quantitative_readout = 104

[[record]]
compound = "Cc1ccc(C2/C(=C(/O)c3ccccc3)C(=O)C(=O)N2CCN2CCOCC2)o1 (stereo not given)"
quantitative_readout = 104

[[record]]
compound = "Cc1ccc(C(=O)NCCn2cc(SCC(=O)Nc3cc(C)on3)c3ccccc32)cc1"
quantitative_readout = 87.4


Item: `O=C(Cn1nc(Cc2cccnc2)c2ccccc2c1=O)N1CCN(c2ccccn2)CC1` | viability: 94.8

Reported viability for CCN(CC)S(=O)(=O)c1ccc(NC2c3ccccc3C(=O)N2Cc2ccc3c(c2)OCO3)cc1 (stereo not given) was 92.9

Source: PubChem BioAssay
